- Test system: NCI-H226
- Test summary: NCI screening panel, NCI-H226 (Non-Small Cell Lung Cancer)
- Format: cell-based, human
Measurement label: Log10TGI50
Please state the value as a number alone, without comment.

Given the compound CC(C)C[C@H](NC(=O)[C@H](COC(F)F)NC(=O)CN1CCOCC1)C(=O)N[C@@H](COC(F)F)C(=O)N[C@@H](CC(C)C)C(=O)[C@@]1(C)CO1 , what is its reported Log10TGI50?
−7.40

Repeat for the following compound: CC(C)C[C@H](NC(=O)[C@H](Cc1ccccc1)NC(=O)[C@H](COC(F)F)NC(=O)[C@H](COC(F)F)NC(=O)CN1CCOCC1)C(=O)[C@@]1(C)CO1
−7.44

Now try CC(C)C[C@H](NC(=O)[C@H](COC(F)F)NC(=O)[C@H](COC(F)F)NC(=O)[C@H](COC(F)F)NC(=O)CN1CCOCC1)C(=O)[C@@]1(C)CO1 .
−6.61
